Quick reference for Ki among some molecules
tgt: Delta-type opioid receptor (Homo sapiens, UniProt P41143)
Sequence (P41143 whole entry): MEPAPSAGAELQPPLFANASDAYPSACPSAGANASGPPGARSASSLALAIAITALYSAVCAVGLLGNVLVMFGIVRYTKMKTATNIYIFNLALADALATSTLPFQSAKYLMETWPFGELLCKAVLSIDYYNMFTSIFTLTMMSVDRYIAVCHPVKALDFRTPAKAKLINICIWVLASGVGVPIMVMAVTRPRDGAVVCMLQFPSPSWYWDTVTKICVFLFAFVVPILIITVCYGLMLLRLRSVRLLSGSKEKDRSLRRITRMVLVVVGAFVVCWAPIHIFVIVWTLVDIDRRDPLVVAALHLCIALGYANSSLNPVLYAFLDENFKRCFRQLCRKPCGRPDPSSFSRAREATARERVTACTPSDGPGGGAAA
assay.details: Displacement of [3H]-naltrindole from human delta opioid receptor expressed in CHO cells after 3 hrs by scintillation counting analysis
Type: cell-based
Non-standard residues stand in square brackets, D forms with d. Residues, ends and D or L forms follow the SMILES beside them. *: point of attachment. βGlc = OC[C@H]1O[C@@H](*)[C@H](O)[C@@H](O)[C@@H]1O; Aib = CC(C)(N)C(=O)O
Value and unit, in that order.

CC(C)C[C@H](NC(=O)[C@H](CO[C@@H]1O[C@H](CO)[C@@H](O)[C@H](O)[C@H]1O)NC(=O)[C@H](CCCCN)NC(=O)[C@H](CC(C)C)NC(=O)[C@H](C)NC(=O)[C@H](CCCCN)NC(=O)[C@H](CCC(=O)O)NC(=O)C(C)(C)NC(=O)[C@H](CC(C)C)NC(=O)[C@H](CC(N)=O)NC(=O)[C@@H]1CCCN1C(=O)CCNC(=O)[C@H](Cc1ccccc1)N(C)C(=O)CNC(=O)[C@@H](C)NC(=O)[C@@H](N)Cc1ccc(O)cc1)C(N)=O    1200 nM

We next turn to a different molecule, shown below.
stdin: Query: Ki; subject: CC(C)C[C@H](NC(=O)[C@H](CO[C@@H]1O[C@H](CO)[C@@H](O)[C@H](O)[C@H]1O)NC(=O)[C@H](CCCCN)NC(=O)[C@H](CC(C)C)NC(=O)[C@H](C)NC(=O)[C@H](CCCCN)NC(=O)[C@H](CCC(=O)O)NC(=O)C(C)(C)NC(=O)[C@H](CC(C)C)NC(=O)[C@H](CC(N)=O)NC(=O)[C@H](C)NC(=O)[C@H](CC(C)C)NC(=O)[C@H](Cc1ccccc1)NC(=O)CNC(=O)[C@@H](NC(=O)[C@@H](N)Cc1ccc(O)cc1)[C@@H](C)O)C(N)=O (H-YTGFLANL[Aib]EKALKS(βGlc)L-NH2)
stdout: 21 nM
